- Tested on: LTC4
- experimental_details: FcεRI-dependent production and release of LTC4
- Assay type: cell-based
- assay_context: Homo sapiens
pEC50: −log10 of the molar value.
property_label: pEC50

# compound, target_or_test_system, measured_value
data = [
    ("COc1cc(Nc2ncc(F)c(Nc3ccc4c(n3)NC(=O)C(C)(C)O4)n2)cc(OC)c1OC [Compound 1]", "LTC4", 7.41),
]

----------
- experimental_details: Water solubility in aqueous buffer
- Assay type: physicochemical
- assay_context: water solubility, aqueous buffer under physiological conditions; read-out: Solubility
property_label: solubility

# given_smiles, property_label, measured_value
records = [
    ("COc1cc(Nc2ncc(F)c(Nc3ccc4c(n3)N(COP(=O)(O)O)C(=O)C(C)(C)O4)n2)cc(OC)c1OC", "solubility", "> 5000 µg/mL"),
    ("COc1cc(Nc2ncc(F)c(Nc3ccc4c(n3)NC(=O)C(C)(C)O4)n2)cc(OC)c1OC", "solubility", "1 to 2 µg/mL"),
]
